Listing of entries alongside the reported %Inh.
# Test system: MAP4K2;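 further: KINOMEscan kinase panel screen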
# EXPERIMENTAL_CONTEXT: concentration: 1 μM, replicates: in singlicate; n = 1
OBSERVATION_TYPE: %Inh (%)

[[record]]
compound = "O=C(Nc1ccccc1)Nc1ccc(Oc2ccc3nccn3n2)cc1"
study_system = "MAP4K2"
observation_type = "%Inh"
reading = 0

[[record]]
compound = "COc1ccc(NC(=O)c2ccc(-c3cc(-c4nnc(C)o4)ccc3C)cc2)cc1"
study_system = "MAP4K2"
observation_type = "%Inh"
reading = 0

[[record]]
compound = "CCc1nc(-c2cccc(C)c2)c(-c2ccnc(NC(=O)c3ccccc3)c2)s1"
study_system = "MAP4K2"
observation_type = "%Inh"
reading = 0

[[record]]
compound = "Fc1cccc(COc2ccc(Nc3ncnc4cc[nH]c34)cc2Cl)c1"
study_system = "MAP4K2"
observation_type = "%Inh"
reading = 0

[[record]]
compound = "COc1ccc(Nc2nccc(N3CCC(NC(=O)Nc4ccc5c(c4)OCO5)C3)n2)cc1 (centres unmarked)"
study_system = "MAP4K2"
observation_type = "%Inh"
reading = 0

[[record]]
compound = "CCc1nc(-c2cccc(N(C)S(=O)(=O)c3ccccc3)c2)c(-c2ccnc(Nc3ccc(N4CCN(C(C)=O)CC4)nc3)n2)s1"
study_system = "MAP4K2"
observation_type = "%Inh"
reading = 0

[[record]]
compound = "CNc1nccc(-c2c(-c3ccc(F)cc3)ncn2C2CCN(C)CC2)n1"
study_system = "MAP4K2"
observation_type = "%Inh"
reading = 0

[[record]]
compound = "CC(=O)Nc1n[nH]c2ncc(-c3ccccc3)cc12"
study_system = "MAP4K2"
observation_type = "%Inh"
reading = 25

[[record]]
compound = "CS(=O)(=O)CCNCc1ccc(-c2ccc3ncnc(Nc4ccc(OCc5ccccc5)c(Cl)c4)c3c2)o1.Cl"
study_system = "MAP4K2"
observation_type = "%Inh"
reading = 0

[[record]]
compound = "COc1cc2ncnc(Nc3ccc(OCc4ccccc4Br)c(Cl)c3)c2cc1OC.Cl"
study_system = "MAP4K2"
observation_type = "%Inh"
reading = 0

[[record]]
compound = "FC(F)(F)c1ccc(-c2nn3ncccc3c2-c2ccnc(Nc3cccc(C(F)(F)F)c3)n2)cc1"
study_system = "MAP4K2"
observation_type = "%Inh"
reading = 0

[[record]]
compound = "Cn1ccc2ncnc(Oc3ccc(NC(=O)Nc4cccnc4)c(Cl)c3)c21"
study_system = "MAP4K2"
observation_type = "%Inh"
reading = 0

[[record]]
compound = "CSc1nn2c(=O)cc(N3CCOCC3)nc2n1Cc1cccc(Cl)c1Cl"
study_system = "MAP4K2"
observation_type = "%Inh"
reading = 0

[[record]]
compound = "Fc1ccc(Nc2nccc(-c3c(-c4ccc(Cl)cc4)nn4ncccc34)n2)cc1F"
study_system = "MAP4K2"
observation_type = "%Inh"
reading = 34

[[record]]
compound = "CNc1nccc(-c2c(-c3ccc(F)cc3)ncn2CCCN2CCOCC2)n1"
study_system = "MAP4K2"
observation_type = "%Inh"
reading = 0

[[record]]
compound = "Oc1ccc2ncnc(Nc3ccc(OCc4ccccc4)cc3)c2c1"
study_system = "MAP4K2"
observation_type = "%Inh"
reading = 0

[[record]]
compound = "Cc1cc(N2CCC(NS(=O)(=O)c3ccc(F)cc3)CC2)nc(Nc2cccc(C#N)c2)n1.O=C(O)C(F)(F)F"
study_system = "MAP4K2"
observation_type = "%Inh"
reading = 0

[[record]]
compound = "Clc1ccc(-c2cc(-c3c[nH]nc3-c3ccccn3)ccn2)cc1"
study_system = "MAP4K2"
observation_type = "%Inh"
reading = 0

[[record]]
compound = "Nc1nc(-c2ccc3c(N)n[nH]c3c2)cc(N2CCC[C@@H](C(=O)Nc3ccccc3)C2)n1.O=C(O)C(F)(F)F.O=C(O)C(F)(F)F"
study_system = "MAP4K2"
observation_type = "%Inh"
reading = 0

[[record]]
compound = "Cc1ccc(O)cc1Nc1cc(C(F)(F)F)nc2ccc(-c3ccncc3)cc12"
study_system = "MAP4K2"
observation_type = "%Inh"
reading = 0

[[record]]
compound = "Nc1nccc2scc(-c3ccc4c(c3)CCN4C(=O)Cc3cc(F)ccc3F)c12"
study_system = "MAP4K2"
observation_type = "%Inh"
reading = 0

[[record]]
compound = "COc1ccc(NC(=O)Nc2ccc(C)c(-c3ccc(C(=O)Nc4ccncc4)cc3)c2)cc1"
study_system = "MAP4K2"
observation_type = "%Inh"
reading = 0

[[record]]
compound = "Clc1cccc(-c2nc(Nc3ccncc3)c3ccccc3n2)c1"
study_system = "MAP4K2"
observation_type = "%Inh"
reading = 0

[[record]]
compound = "COC(=O)c1c(-c2ccccc2)c2cc(Cl)ccc2c(=O)n1Cc1ccc(S(C)(=O)=O)cc1"
study_system = "MAP4K2"
observation_type = "%Inh"
reading = 3

[[record]]
compound = "c1ccc(-c2ccc3c(-c4ccnc(Nc5ccc6c(c5)OCCO6)n4)cnn3n2)cc1"
study_system = "MAP4K2"
observation_type = "%Inh"
reading = 6

[[record]]
compound = "O=C(c1ccc(-c2cc(-c3c[nH]nc3-c3ccccn3)ccn2)cc1)N1CCCC1"
study_system = "MAP4K2"
observation_type = "%Inh"
reading = 0

